- TARGET_OR_TEST_SYSTEM: human CGT (ceramide galactosyltransferase), CHO/CGT lysate (Homo sapiens, UniProt Q16880)
- Construct: Full-length human CGT cDNA was cloned into the BamH1/Xho1 site of pcDNA3.1 (+); expressed in transfected cells; host or cells: Chinese hamster ovary (CHO) cells; lysate prepared with M-PER
- Sequence (Q16880 21-541): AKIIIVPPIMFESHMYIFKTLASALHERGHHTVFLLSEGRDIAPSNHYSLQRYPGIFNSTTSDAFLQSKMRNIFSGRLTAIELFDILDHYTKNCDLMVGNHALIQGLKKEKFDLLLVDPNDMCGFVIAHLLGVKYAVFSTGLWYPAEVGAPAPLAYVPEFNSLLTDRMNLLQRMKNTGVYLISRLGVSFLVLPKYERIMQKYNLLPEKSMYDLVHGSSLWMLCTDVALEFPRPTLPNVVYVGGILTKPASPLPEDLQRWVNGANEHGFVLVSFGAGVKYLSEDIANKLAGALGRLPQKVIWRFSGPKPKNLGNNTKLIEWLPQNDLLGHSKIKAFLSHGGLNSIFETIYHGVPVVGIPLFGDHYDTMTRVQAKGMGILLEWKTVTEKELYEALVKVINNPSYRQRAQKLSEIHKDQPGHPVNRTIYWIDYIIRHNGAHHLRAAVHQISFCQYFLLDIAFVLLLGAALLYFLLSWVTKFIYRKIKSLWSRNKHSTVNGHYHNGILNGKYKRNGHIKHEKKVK
- TEST_NAME: CGT enzyme assay, RapidFire/MS/MS readout (Table 1 ranges with one asterisk *)
- Assay type: biochemical
- TEST_SETTINGS: RapidFire method (range with one asterisk *)
pIC50: −log10 of the molar value. Where a name gives a salt, the structure may show the parent alone.
pIC50 values for the molecules below.

MOLECULE	pIC50
CN([C@@H](C(=O)N1C2CCC1CC(N)C2)C(F)(F)c1ccc(Br)cc1)S(=O)(=O)c1ccc2cc(OC3CCCCC3)ccc2c1 (stereo partly drawn) [Compound 37-2, trifluoroacetate]	4.00 to 4.52
CN([C@H](C(=O)N1CCC(N)CC1)C(F)(F)c1ccc(Br)cc1)S(=O)(=O)c1ccc2cc(OC3CCCC3)ccc2c1 [Compound 44-1]	> 6.00
CCCCOc1cc(C(F)(F)[C@@H](NS(=O)(=O)c2ccc3cc(OC4CCCC4)ccc3c2)C(=O)N2C3CCC2CC(N)C3)ccc1Cl (stereo partly drawn) [Compound 118-2]	5.00 to 6.00
NC1CC2CCC(C1)N2C(=O)[C@@H](NS(=O)(=O)c1ccc(OCC2CCCCC2)cc1)C(F)(F)c1cccc(Oc2ccccc2)c1 (stereo partly drawn) [Compound 113-1, trifluoroacetate]	> 6.00
CN([C@H](C(=O)N1C2CCC1CC(N)C2)C(F)(F)c1ccc(C(F)(F)F)cc1)S(=O)(=O)c1ccc2cc(OC3CCCC3)ccc2c1 (stereo partly drawn) [Compound 73-1]	> 6.00
NC1CCN(C(=O)[C@H](NS(=O)(=O)c2ccc(OCC3CCCCC3)cc2)C(F)(F)c2cccc(Oc3ccccc3)c2)CC1 [Compound 109-2]	5.00 to 6.00
N[C@@H]1CCN(C(=O)[C@H](NS(=O)(=O)c2ccc3cc(OC4CCCC4)ccc3c2)C(F)(F)c2ccc(Br)cc2)C1 [Compound 139-2]	5.00 to 6.00
N[C@@H]1CCCN(C(=O)[C@H](NS(=O)(=O)c2ccc3cc(OC4CCCC4)ccc3c2)C(F)(F)c2ccc(Br)cc2)C1 [Compound 122-2]	4.00 to 4.52
NC1CCN(C(=O)[C@@H](NS(=O)(=O)c2ccc(OCC3CCCCC3)cc2)C(F)(F)c2cccc(Oc3ccccc3)c2)CC1 [Compound 109-1, trifluoroacetate]	5.00 to 6.00
CCCCOc1ccc(C(F)(F)[C@H](C(=O)N2C3CCC2CC(N)C3)N(C)S(=O)(=O)c2ccc3cc(OC4CCCC4)ccc3c2)cc1 (stereo partly drawn) [Compound 51-2]	5.00 to 6.00
COc1cc(C(F)(F)[C@H](NS(=O)(=O)c2ccc(OCC3CCCCC3)cc2)C(=O)N2C3CCC2CC(N)C3)ccc1Br (stereo partly drawn) [Compound 128-1]	> 6.00
CN([C@@H](C(=O)N1CCC(N)CC1)C(F)(F)c1ccc(Cl)cc1)S(=O)(=O)c1ccc2cc(OC3CCCC3)ccc2c1 [Compound 100-2]	4.52 to 5.00

###

Entries and their pIC50
- TARGET_OR_TEST_SYSTEM: human CGT (ceramide galactosyltransferase), CHO/CGT lysate (Homo sapiens, UniProt Q16880)
- Construct: Full-length human CGT cDNA was cloned into the BamH1/Xho1 site of pcDNA3.1 (+); expressed in transfected cells; host or cells: Chinese hamster ovary (CHO) cells; lysate prepared with M-PER
- TEST_NAME: CGT enzyme assay, RapidFire/MS/MS readout (Table 1 ranges with one asterisk *)
- Format: biochemical
- TEST_SETTINGS: RapidFire method (range with one asterisk *)
pIC50: −log10 of the molar value. Structures can show the parent of a compound that is named as a salt.

COMPOUND	pIC50
NC1CC2CCC(C1)N2C(=O)[C@H](NC(=O)[C@@H](O)c1ccc2cc(OC3CCCC3)ccc2c1)C(F)(F)c1ccc(Br)cc1 (stereo partly drawn) [Compound 41-6, trifluoroacetate]	4.00 to 4.52
CN([C@@H](C(=O)N1C2CCC1CC(N)C2)C(F)(F)c1ccc(OCCN2CCCCC2)cc1)S(=O)(=O)c1ccc2cc(OC3CCCC3)ccc2c1 (stereo partly drawn)	4.00 to 4.52
CCCCOc1cc(C(F)(F)[C@H](NS(=O)(=O)c2ccc(OCC3CCCCC3)cc2)C(=O)N2C3CCC2CC(N)C3)ccc1Cl (stereo partly drawn)	> 6.00
CCN([C@H](C(=O)N1C2CCC1CC(N)C2)C(F)(F)c1ccc(Br)cc1)S(=O)(=O)c1ccc2cc(OC3CCCC3)ccc2c1 (stereo partly drawn)	5.00 to 6.00
CN([C@@H](C(=O)N1C2CCC1CC(N)C2)C(F)(F)c1ccc(O)cc1)S(=O)(=O)c1ccc2cc(OC3CCCC3)ccc2c1 (stereo partly drawn) [Compound 110-2, trifluoroacetate]	4.00 to 4.52
CCCCOc1cc(C(F)(F)[C@H](NS(=O)(=O)c2ccc(OCC3CCCCC3)cc2)C(=O)N2CCC(N)CC2)ccc1Cl	> 6.00
CN([C@H](C(=O)N1C2CCC1CC(N)C2)C(F)(F)c1cccc(Oc2ccccc2)c1)S(=O)(=O)c1ccc2cc(OC3CCCC3)ccc2c1 (stereo partly drawn) [Compound 111-1, trifluoroacetate]	> 6.00
NC1CCN(C(=O)[C@H](NS(=O)(=O)c2ccc3c(cnn3CC3CCCC3)c2)C(F)(F)c2ccc(Cl)cc2)CC1	4.00 to 4.52
NC1CC2CCC(C1)N2C(=O)[C@@H](NS(=O)(=O)c1ccc(OCC2CCCC2)cc1)C(F)(F)c1ccc2cc(Br)ccc2c1 (stereo partly drawn)	5.00 to 6.00
CCCCOc1cccc(C(F)(F)[C@@H](NS(=O)(=O)c2ccc3cc(OC4CCCC4)ccc3c2)C(=O)N2CCC(N)CC2)c1 [Compound 83-2, trifluoroacetate]	5.00 to 6.00
NC1CC2CCC(C1)N2C(=O)[C@@H](NS(=O)(=O)c1ccc2cc(OC3CCCC3)ccc2c1)C(F)(F)c1ccc(-c2ccccc2)cc1 (stereo partly drawn) [Compound 36-1, trifluoroacetate]	> 6.00
NC1CC2CCC(C1)N2C(=O)[C@@H](NC(=O)[C@@H](O)c1ccc2cc(OC3CCCC3)ccc2c1)C(F)(F)c1ccc(Br)cc1 (stereo partly drawn) [Compound 41-3, trifluoroacetate]	5.00 to 6.00

###

- TARGET_OR_TEST_SYSTEM: human CGT (ceramide galactosyltransferase), CHO/CGT lysate (Homo sapiens, UniProt Q16880)
- Construct: Full-length human CGT cDNA was cloned into the BamH1/Xho1 site of pcDNA3.1 (+); expressed in transfected cells; host or cells: Chinese hamster ovary (CHO) cells; lysate prepared with M-PER
- TEST_NAME: CGT enzyme assay, RapidFire/MS/MS readout with 0.01% Tween added (Table 1 ranges with two asterisks **)
- Type: biochemical
- TEST_SETTINGS: CGT enzymatic assay; range with two asterisks (**): RapidFire/MS/MS method with 0.01% Tween added
Where a name gives a salt, the structure may show the parent alone.
METRIC: IC50

COMPOUND	TARGET_OR_TEST_SYSTEM	VALUE_OBSERVED
NC1CCN(C(=O)[C@H](N(CC(F)(F)F)S(=O)(=O)c2ccc3cc(OC4CCCC4)ccc3c2)C(F)(F)c2ccc(Br)cc2)CC1	human CGT (ceramide galactosyltransferase), CHO/CGT lysate (Homo sapiens, UniProt Q16880)	30 to 100 µM
N[C@@H]1CCN(C(=O)[C@H](NS(=O)(=O)c2ccc3cc(OC4CCCC4)ccc3c2)C(F)(F)c2ccc(-c3ccc(Cl)cc3)cc2)C[C@H]1F	human CGT (ceramide galactosyltransferase), CHO/CGT lysate (Homo sapiens, UniProt Q16880)	30 to 100 µM
N[C@@H]1CCN(C(=O)[C@H](NS(=O)(=O)c2ccc(OCC3CCCCC3)cc2)C(F)(F)c2ccc(Cl)cc2)C1	human CGT (ceramide galactosyltransferase), CHO/CGT lysate (Homo sapiens, UniProt Q16880)	10 to 30 µM
NC1CCN(C(=O)[C@@H](NS(=O)(=O)c2cc3ccc(OC4CCCC4)cc3s2)C(F)(F)c2ccc(-c3ccc(Cl)cc3)cc2)CC1	human CGT (ceramide galactosyltransferase), CHO/CGT lysate (Homo sapiens, UniProt Q16880)	1 to 10 µM
N[C@H]1CCN(C(=O)[C@H](NS(=O)(=O)c2ccc(OCC3CCCCC3)cc2)C(F)(F)c2ccc(-c3ccc(Cl)cc3)cc2)C1	human CGT (ceramide galactosyltransferase), CHO/CGT lysate (Homo sapiens, UniProt Q16880)	30 to 100 µM
NC1CC2CCC(C1)N2C(=O)[C@H](NC(=O)[C@H](O)c1ccc2cc(OC3CCCC3)ccc2c1)C(F)(F)c1ccc2cc(Br)ccc2c1 (some centres unmarked) [Compound 158-4, trifluoroacetate]	human CGT (ceramide galactosyltransferase), CHO/CGT lysate (Homo sapiens, UniProt Q16880)	30 to 100 µM
N[C@H]1[C@@H]2CC[C@H]1CN(C(=O)[C@@H](NS(=O)(=O)c1ccc3cc(OC4CCCC4)ccc3c1)C(F)(F)c1ccc(Cl)cc1)C2	human CGT (ceramide galactosyltransferase), CHO/CGT lysate (Homo sapiens, UniProt Q16880)	< 1 µM
N[C@H]1CCN(C(=O)[C@@H](NS(=O)(=O)c2ccc3cc(OC4CCCC4)ccc3c2)C(F)(F)c2ccc(-c3ccc(Cl)cc3)cc2)C1 [Compound 148-1, trifluoroacetate]	human CGT (ceramide galactosyltransferase), CHO/CGT lysate (Homo sapiens, UniProt Q16880)	1 to 10 µM
NC1CCN(C(=O)[C@H](NS(=O)(=O)c2ccc3cc(OC4CCCC4)ccc3c2)C(F)(F)c2ccc(Cl)c(OC3CCCC3)c2)CC1	human CGT (ceramide galactosyltransferase), CHO/CGT lysate (Homo sapiens, UniProt Q16880)	10 to 30 µM
CCCOc1cc(C(F)(F)[C@H](NS(=O)(=O)c2ccc3cc(OC4CCCC4)ccc3c2)C(=O)N2CCC(N)CC2)ccc1Cl [Compound 169-1, trifluoroacetate]	human CGT (ceramide galactosyltransferase), CHO/CGT lysate (Homo sapiens, UniProt Q16880)	< 1 µM
N[C@@H]1CCN(C(=O)[C@@H](NS(=O)(=O)c2ccc3cc(OC4CCCC4)ccc3c2)C(F)(F)c2ccc(-c3ccc(Cl)cc3)cc2)CC1(F)F [Compound 161-1, trifluoroacetate]	human CGT (ceramide galactosyltransferase), CHO/CGT lysate (Homo sapiens, UniProt Q16880)	1 to 10 µM
N[C@H]1[C@@H]2CC[C@H]1CN(C(=O)[C@@H](NS(=O)(=O)c1ccc(OCC3CCCCC3)cc1)C(F)(F)c1ccc(-c3ccc(Cl)cc3)cc1)C2	human CGT (ceramide galactosyltransferase), CHO/CGT lysate (Homo sapiens, UniProt Q16880)	< 1 µM
N[C@H]1CCN(C(=O)[C@@H](NS(=O)(=O)c2ccc(OCC3CCCCC3)cc2)C(F)(F)c2ccc(-c3ccc(Cl)cc3)cc2)C1 [Compound 171-1, trifluoroacetate]	human CGT (ceramide galactosyltransferase), CHO/CGT lysate (Homo sapiens, UniProt Q16880)	1 to 10 µM
NC1CCN(C(=O)[C@@H](NS(=O)(=O)c2ccc3cc(OC4CCCC4)ccc3c2)C(F)(F)c2ccc(Cl)c(OC3CC3)c2)CC1 [Compound 168-1, trifluoroacetate]	human CGT (ceramide galactosyltransferase), CHO/CGT lysate (Homo sapiens, UniProt Q16880)	1 to 10 µM
O=C([C@H](NS(=O)(=O)c1ccc(OCC2CCCCC2)cc1)C(F)(F)c1ccc(-c2ccc(Cl)cc2)cc1)N1CC[C@@H]2CNC[C@@H]21	human CGT (ceramide galactosyltransferase), CHO/CGT lysate (Homo sapiens, UniProt Q16880)	30 to 100 µM
COc1cc(C(F)(F)[C@H](NS(=O)(=O)c2ccc(OCC3CCCCC3)cc2)C(=O)N2CCC(N)CC2)ccc1-c1ccc(Cl)cc1	human CGT (ceramide galactosyltransferase), CHO/CGT lysate (Homo sapiens, UniProt Q16880)	< 1 µM
NC1CCN(C(=O)[C@H](NS(=O)(=O)c2ccc(OCC3CCCCC3)cc2)C(F)(F)c2ccc(C3(C(F)(F)F)CC3)cc2)CC1	human CGT (ceramide galactosyltransferase), CHO/CGT lysate (Homo sapiens, UniProt Q16880)	10 to 30 µM
NC1CCN(C(=O)[C@H](NS(=O)(=O)c2ccc(OCC3CCCCC3)cc2)C(F)(F)c2ccc(-c3ccccc3)cc2)CC1 [Compound 156-2, trifluoroacetate]	human CGT (ceramide galactosyltransferase), CHO/CGT lysate (Homo sapiens, UniProt Q16880)	30 to 100 µM
NC1CCN(C(=O)[C@H](NS(=O)(=O)c2cc3ccc(OC4CCCC4)cc3s2)C(F)(F)c2ccc(-c3ccc(Cl)cc3)cc2)CC1	human CGT (ceramide galactosyltransferase), CHO/CGT lysate (Homo sapiens, UniProt Q16880)	1 to 10 µM
NC1CCN(C(=O)[C@H](NS(=O)(=O)c2ccc(OCC3CCCCC3)cc2)C(F)(F)c2ccc3c(c2)oc2cc(Cl)ccc23)CC1	human CGT (ceramide galactosyltransferase), CHO/CGT lysate (Homo sapiens, UniProt Q16880)	30 to 100 µM
O=C([C@@H](NS(=O)(=O)c1ccc(OCC2CCCCC2)cc1)C(F)(F)c1ccc(-c2ccc(Cl)cc2)cc1)N1CC[C@@H]2CNC[C@@H]21	human CGT (ceramide galactosyltransferase), CHO/CGT lysate (Homo sapiens, UniProt Q16880)	1 to 10 µM
N[C@H]1CC2CCC1N2C(=O)[C@@H](NS(=O)(=O)c1ccc2cc(OC3CCCC3)ccc2c1)C(F)(F)c1ccc(-c2ccc(Cl)cc2)cc1 (some centres unmarked)	human CGT (ceramide galactosyltransferase), CHO/CGT lysate (Homo sapiens, UniProt Q16880)	1 to 10 µM
COc1cc(C(F)(F)[C@H](NS(=O)(=O)c2ccc(OCC3CCCCC3)cc2)C(=O)N2CCC(N)CC2)ccc1Br [Compound 145-1, trifluoroacetate]	human CGT (ceramide galactosyltransferase), CHO/CGT lysate (Homo sapiens, UniProt Q16880)	< 1 µM
